# pIC50 per entry
# System Name: full-length FLAG-tagged B-Raf(V600E) (Homo sapiens (Human), UniProt P15056, V600E)
# Sequence (P15056 whole entry V600E): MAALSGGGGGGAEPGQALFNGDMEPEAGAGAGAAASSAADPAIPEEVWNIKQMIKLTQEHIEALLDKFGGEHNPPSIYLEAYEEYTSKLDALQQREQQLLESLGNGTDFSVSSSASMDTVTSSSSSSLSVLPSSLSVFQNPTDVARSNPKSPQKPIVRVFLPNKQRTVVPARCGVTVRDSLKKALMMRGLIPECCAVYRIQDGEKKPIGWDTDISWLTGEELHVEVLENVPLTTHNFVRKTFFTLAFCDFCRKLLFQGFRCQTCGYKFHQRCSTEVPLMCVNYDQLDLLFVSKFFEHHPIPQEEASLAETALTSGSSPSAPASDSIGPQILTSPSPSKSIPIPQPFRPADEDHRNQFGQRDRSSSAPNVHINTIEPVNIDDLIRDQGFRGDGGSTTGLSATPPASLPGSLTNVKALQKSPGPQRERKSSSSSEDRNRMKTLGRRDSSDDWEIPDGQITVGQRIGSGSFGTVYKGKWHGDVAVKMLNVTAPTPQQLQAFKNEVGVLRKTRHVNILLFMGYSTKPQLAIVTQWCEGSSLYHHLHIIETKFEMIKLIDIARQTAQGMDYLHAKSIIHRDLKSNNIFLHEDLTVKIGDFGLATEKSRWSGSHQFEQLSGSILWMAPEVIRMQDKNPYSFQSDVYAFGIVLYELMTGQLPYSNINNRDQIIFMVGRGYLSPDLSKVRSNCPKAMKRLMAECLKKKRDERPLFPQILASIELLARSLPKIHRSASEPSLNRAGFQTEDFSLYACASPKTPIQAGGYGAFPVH
# Method Description: BRAF V600E enzyme assay (TR-FRET competitive displacement of fluorescent tracer)
# Format: binding
# Applied Conditions: averaged IC50; 60 min at ambient temperature; 11-point dosing, top dose 10 μM
# Description: A competitive displacement assay was configured for B-Raf that monitors the amount of a fluorescently-tagged “tracer” bound to B-Raf via TR-FRET from an anti-tag Eu-labeled antibody also bound to B-Raf. [formula] • where: • Xmax Average Uninhibited Controls • Xmin Average Background A 4-parameter logistic model was the fit to the POC data for each compound.
Counter-ions that a name gives are not always drawn.
Please treat pIC50 as minus the base-10 logarithm of the molar concentration.

Some entries whose results are on file:
Give the measured pIC50 of `Cc1c(Nc2c(F)ccc(NS(=O)(=O)c3ccccn3)c2Cl)ccc2ncn(C)c(=O)c12` . 7.31

Give the measured pIC50 of `CCCS(=O)(=O)Nc1cc(Cl)cc(Nc2ccc3ncn(C)c(=O)c3c2C)c1F` . 8.34

Give the measured pIC50 of CCCS(=O)(=O)Nc1ccc(F)c(Nc2ccc3ncn([C@@H]4CCOC4)c(=O)c3c2C)c1Cl [Example 34, trifluoroacetate] . 8.05

---
Give the measured pIC50 of `Cc1c(Oc2c(F)cnc(NS(=O)(=O)CCCF)c2F)ccc2ncn(C)c(=O)c12` . 7.98

Give the measured pIC50 of `C#Cc1c(Nc2c(F)ccc(NS(=O)(=O)CCC)c2Cl)ccc2ncn(C)c(=O)c12` . 8.03

Give the measured pIC50 of `CCCS(=O)(=O)Nc1ccc(F)c(Sc2ccc3ncn(C)c(=O)c3c2C)c1Cl` . 7.03

Give the measured pIC50 of `CCCS(=O)(=O)Nc1cccc(Oc2ccc3ncn(C)c(=O)c3c2C)c1Cl` . 7.97

Give the measured pIC50 of `CCCS(=O)(=O)Nc1cccc(Nc2ccc3ncn(C)c(=O)c3c2C)c1Cl` . 7.15

Give the measured pIC50 of `CCCS(=O)(=O)Nc1cc(F)cc(Oc2ccc3ncn(C)c(=O)c3c2C)c1F` . 8.29

Give the measured pIC50 of `CCCS(=O)(=O)Nc1ncc(Cl)c(Nc2ccc3ncn(C)c(=O)c3c2C)c1Cl` . 8.34

Give the measured pIC50 of `COCCS(=O)(=O)Nc1ccc(F)c(Nc2ccc3ncn(C)c(=O)c3c2C)c1Cl` . 6.68

====

# Method Description: MDR1 LLC-PK1 and BCRP MDCKII permeability assay: permeability coefficient (Papp)
Counter-ions that a name gives are not always drawn.
Measure: Papp at 2 h, 1 µM (×10⁻⁶ cm/s)
The response must be a number in ×10⁻⁶ cm/s with no trailing unit.

Some entries whose results are on file:
Give the measured Papp at 2 h, 1 µM of `Cc1c(Nc2c(F)cnc(NS(=O)(=O)CCCF)c2F)ccc2ncn(C)c(=O)c12` . 6.65

Give the measured Papp at 2 h, 1 µM of CCCS(=O)(=O)Nc1ccc(F)c(Nc2ccc3ncn(C4CCC4)c(=O)c3c2C)c1Cl [Example 33, trifluoroacetate] . 21.9

Give the measured Papp at 2 h, 1 µM of `CCCS(=O)(=O)Nc1cc(F)c(F)c(Oc2ccc3ncn(C)c(=O)c3c2C)c1F` . 25.6

---
Give the measured Papp at 2 h, 1 µM of `CCCS(=O)(=O)Nc1ccc(F)c(Nc2ccc3ncn(C)c(=O)c3c2C)c1Cl` . 27.8

Give the measured Papp at 2 h, 1 µM of `CCCS(=O)(=O)Nc1ccc(F)c(Oc2ccc3ncn(C)c(=O)c3c2C)c1F` . 25.1

Give the measured Papp at 2 h, 1 µM of `CCCS(=O)(=O)Nc1cc(F)cc(Oc2ccc3ncn(C)c(=O)c3c2C)c1F` . 31.8

Give the measured Papp at 2 h, 1 µM of `Cc1c(Oc2c(F)cnc(NS(=O)(=O)CCCF)c2F)ccc2ncn(C)c(=O)c12` . 9.78

Give the measured Papp at 2 h, 1 µM of `CCCS(=O)(=O)Nc1ncc(Cl)c(Nc2ccc3ncn(C)c(=O)c3c2C)c1Cl` . 24.1

====

# Papp at 2 h, 1 µM per entry
# Method Description: MDR1 LLC-PK1 and BCRP MDCKII permeability assay: permeability coefficient (Papp)
Structures can show the parent of a compound that is named as a salt.
The response must be a number in ×10⁻⁶ cm/s with no trailing unit.

Some entries whose results are on file:
Give the measured Papp at 2 h, 1 µM of CCCS(=O)(=O)Nc1cc(C)cc(Oc2ccc3ncn(C)c(=O)c3c2C)c1F [Example 75] . 21.5

Give the measured Papp at 2 h, 1 µM of Cc1c(Nc2c(F)ccc(NS(=O)(=O)c3ccccc3)c2Cl)ccc2ncn(C)c(=O)c12 [Example 49] . 30.7

---
Give the measured Papp at 2 h, 1 µM of Cc1c(Oc2cc(F)cc(NS(=O)(=O)CCCF)c2F)ccc2ncn(C)c(=O)c12 [Example 77] . 25.6

Give the measured Papp at 2 h, 1 µM of CCCS(=O)(=O)Nc1ccc(F)c(Nc2ccc3ncn(C4CC4)c(=O)c3c2C)c1Cl [Example 31, trifluoroacetate] . 24.5

====

# efflux ratio at 2 h, 1 µM per entry
# System Name: UniProtKB P08183
# Method Description: MDR1 LLC-PK1 permeability assay: efflux ratio
# Applied Conditions: pig, LLC-PK1
Keep the answer to the number alone.

Some entries whose results are on file:
Give the measured efflux ratio at 2 h, 1 µM of CCCS(=O)(=O)Nc1cccc(Oc2ccc3ncn(C)c(=O)c3c2C)c1F [Example 68] . 1.2

Give the measured efflux ratio at 2 h, 1 µM of CCCS(=O)(=O)Nc1ccc(F)c(Nc2ccc3ncn(CCOC)c(=O)c3c2C)c1Cl [Example 30] . 2.59

Give the measured efflux ratio at 2 h, 1 µM of CCCS(=O)(=O)Nc1ncc(F)c(Nc2ccc3ncn(C)c(=O)c3c2C)c1F [Example 16] . 4.76

Below: the item to evaluate.
Give the measured efflux ratio at 2 h, 1 µM of CCCS(=O)(=O)Nc1ncc(F)c(Nc2ccc3ncn(C)c(=O)c3c2C)c1Cl [Example 18] . 1.52

====

# System Name: P-gp (MDR1) (Homo sapiens (Human), UniProt P08183)
# Sequence (P08183 whole entry, species assumed): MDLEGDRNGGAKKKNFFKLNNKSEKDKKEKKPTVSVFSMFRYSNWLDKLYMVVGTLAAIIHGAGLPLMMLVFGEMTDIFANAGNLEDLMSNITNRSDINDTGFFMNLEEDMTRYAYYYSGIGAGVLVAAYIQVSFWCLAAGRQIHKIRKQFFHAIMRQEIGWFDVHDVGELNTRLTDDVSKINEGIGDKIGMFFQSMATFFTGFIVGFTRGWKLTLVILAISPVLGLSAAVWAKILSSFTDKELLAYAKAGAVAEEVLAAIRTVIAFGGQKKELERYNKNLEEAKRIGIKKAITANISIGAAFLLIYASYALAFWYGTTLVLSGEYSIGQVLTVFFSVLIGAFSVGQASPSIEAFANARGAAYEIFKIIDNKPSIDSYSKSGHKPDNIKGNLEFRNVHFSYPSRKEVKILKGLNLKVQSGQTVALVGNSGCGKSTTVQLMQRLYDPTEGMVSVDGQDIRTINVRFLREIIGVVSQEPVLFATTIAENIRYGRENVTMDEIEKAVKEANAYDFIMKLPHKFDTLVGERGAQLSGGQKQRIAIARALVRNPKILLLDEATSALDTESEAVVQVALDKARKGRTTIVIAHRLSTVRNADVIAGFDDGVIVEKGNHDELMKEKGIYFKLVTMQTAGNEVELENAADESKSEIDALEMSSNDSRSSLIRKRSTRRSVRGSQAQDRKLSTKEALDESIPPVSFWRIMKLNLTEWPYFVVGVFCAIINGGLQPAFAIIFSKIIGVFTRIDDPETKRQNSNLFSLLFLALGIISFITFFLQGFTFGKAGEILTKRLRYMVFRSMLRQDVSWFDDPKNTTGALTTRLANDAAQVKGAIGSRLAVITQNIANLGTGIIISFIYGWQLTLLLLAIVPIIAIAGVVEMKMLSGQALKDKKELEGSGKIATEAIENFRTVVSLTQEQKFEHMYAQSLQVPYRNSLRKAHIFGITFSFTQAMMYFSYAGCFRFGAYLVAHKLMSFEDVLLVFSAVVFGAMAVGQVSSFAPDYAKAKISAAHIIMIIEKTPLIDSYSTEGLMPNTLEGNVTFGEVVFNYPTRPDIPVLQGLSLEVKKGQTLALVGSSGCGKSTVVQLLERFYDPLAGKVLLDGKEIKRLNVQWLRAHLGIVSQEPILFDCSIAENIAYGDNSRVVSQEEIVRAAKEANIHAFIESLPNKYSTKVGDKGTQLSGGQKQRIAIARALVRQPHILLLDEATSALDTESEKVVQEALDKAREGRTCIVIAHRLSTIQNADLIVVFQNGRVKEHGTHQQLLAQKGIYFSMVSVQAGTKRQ
# Method Description: MDR1 LLC-PK1 permeability assay: efflux ratio
# Applied Conditions: pig, LLC-PK1
Counter-ions that a name gives are not always drawn.
Measure: efflux ratio at 2 h, 1 µM
Keep the answer to the number alone.

Some entries whose results are on file:
// fetch P-gp (MDR1) (Homo sapiens (Human), UniProt P08183) efflux ratio at 2 h, 1 µM for `Cc1c(Oc2cccc(NS(=O)(=O)CCCF)c2F)ccc2ncn(C)c(=O)c12` 1.3

// fetch P-gp (MDR1) (Homo sapiens (Human), UniProt P08183) efflux ratio at 2 h, 1 µM for CCCS(=O)(=O)Nc1ccc(F)c(Nc2ccc3ncn([C@@H]4CCOC4)c(=O)c3c2C)c1Cl [Example 34, trifluoroacetate] 1.81

// fetch P-gp (MDR1) (Homo sapiens (Human), UniProt P08183) efflux ratio at 2 h, 1 µM for `CCCS(=O)(=O)Nc1cc(F)cc(Nc2ccc3ncn(C)c(=O)c3c2C)c1Cl` 0.93

// fetch P-gp (MDR1) (Homo sapiens (Human), UniProt P08183) efflux ratio at 2 h, 1 µM for `Cc1c(Nc2c(F)cnc(NS(=O)(=O)CCCF)c2F)ccc2ncn(C)c(=O)c12` 5.07

// fetch P-gp (MDR1) (Homo sapiens (Human), UniProt P08183) efflux ratio at 2 h, 1 µM for `CCCS(=O)(=O)Nc1ccc(Cl)c(Nc2ccc3ncn(C)c(=O)c3c2C)c1F` 2.2

// fetch P-gp (MDR1) (Homo sapiens (Human), UniProt P08183) efflux ratio at 2 h, 1 µM for `CCCS(=O)(=O)Nc1cc(F)c(F)c(Oc2ccc3ncn(C)c(=O)c3c2C)c1Cl` 0.93

---
// fetch P-gp (MDR1) (Homo sapiens (Human), UniProt P08183) efflux ratio at 2 h, 1 µM for `CCCS(=O)(=O)Nc1ccc(Cl)c(Nc2ccc3ncn(C)c(=O)c3c2C)c1Cl` 1.38

// fetch P-gp (MDR1) (Homo sapiens (Human), UniProt P08183) efflux ratio at 2 h, 1 µM for `CCCS(=O)(=O)Nc1cc(F)c(F)c(Nc2ccc3ncn(C)c(=O)c3c2C)c1F` 2.24

====

# System Name: full-length FLAG-tagged B-Raf(V600E) (Homo sapiens (Human), UniProt P15056, V600E)
# Method Description: BRAF V600E enzyme assay (TR-FRET competitive displacement of fluorescent tracer)
# Assay type: binding
# Applied Conditions: averaged IC50; 60 min at ambient temperature; 11-point dosing, top dose 10 μM
Where a name gives a salt, the structure may show the parent alone.
Measure: IC50 (nM)
The response must be a number in nM with no trailing unit.

Some entries whose results are on file:
Give the measured IC50 of `Cc1c(Oc2cc(F)cc(NS(=O)(=O)CCCF)c2F)ccc2ncn(C)c(=O)c12` . 4.25

Give the measured IC50 of `Cc1c(Nc2c(F)ccc(NS(=O)(=O)c3ccco3)c2Cl)ccc2ncn(C)c(=O)c12` . 0.7

Give the measured IC50 of `Cc1c(Nc2c(F)cnc(NS(=O)(=O)CCCF)c2Cl)ccc2ncn(C)c(=O)c12` . 6.2

---
Give the measured IC50 of CCCS(=O)(=O)Nc1ccc(F)c(Nc2ccc3ncn(-c4ccccc4)c(=O)c3c2C)c1Cl [Example 32, trifluoroacetate] . 92.7

Give the measured IC50 of `CCCS(=O)(=O)Nc1ccc(Cl)c(Nc2ccc3ncn(C)c(=O)c3c2C)c1F` . 43.9

Give the measured IC50 of CCCS(=O)(=O)Nc1ccc(F)c(Nc2ccc3ncn(C4CC4)c(=O)c3c2C)c1Cl [Example 31, trifluoroacetate] . 25.1
